B1: HDV Ribozyme (parent)
chain: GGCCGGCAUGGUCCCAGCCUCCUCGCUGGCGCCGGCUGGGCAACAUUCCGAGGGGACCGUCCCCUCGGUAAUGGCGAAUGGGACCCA

- Variants of: B1
- test_name: self-cleavage, relative activity (ratio to wild type); higher = more cleavage; co-transcriptional
Listing of entries alongside the reported self-cleavage.

| variant_identifier | self-cleavage |
| --- | --- |
| A51C U69G | 1.15 |
| G2U G40C | 0.0455 |
| U12C U27A | 0.506 |
| C26A G68A | 1.08 |

Query G11C G52U yields self-cleavage of 0.228

Query G68C G82A yields self-cleavage of 0.237
